Test Details: DTX concentration in plasma and tissues of TxR tumor bearing mice (LC/MS/MS)
Assay type: in vivo, ICR-NOD/SCID mice
Condition Context: ICR-NOD/SCID, mouse, plasma, iv, 20 mg/kg

Structure Notation | concentration at 2 h / ng/mL
CC(=O)O[C@@]12CO[C@@H]1C[C@H](O)[C@@]1(C)C(=O)[C@H](O)C3=C(C)[C@@H](OC(=O)[C@H](O)[C@@H](NC(=O)OC(C)(C)C)c4ccccc4)C[C@@](O)([C@@H](OC(=O)c4ccccc4)[C@H]21)C3(C)C | 704

---

Tested on: CYPs (hepatic metabolism of DTX)
Test Details: In vitro inhibition of hepatic metabolism of DTX in mouse liver microsomes
Format: in vitro ADME, ICR mice
Condition Context: ICR, pH 7.4, probe DTX (docetaxel) 2 μM
Reported Metric: IC50 at 60 min (µM)

Structure Notation | Target Under Test | Measurement
O=C(/C=C/C=C/c1ccc2c(c1)OCO2)N1CCCCC1 | CYPs (hepatic metabolism of DTX) | 37.3

Values were extracted from paper PMC5790467.
